Data export: pIC50 values recorded with nNOS (Homo sapiens, UniProt P29475).
pIC50: −log10 of the molar value. Where a name gives a salt, the structure may show the parent alone.
quantity: pIC50

>  <compound>
CC(=N)Nc1ccc2c(c1)C(=O)Nc1ccccc1N2 [Example 11, hydrobromide]

>  <pIC50>
3.70

$$$$

a. O=C(NC(=S)Nc1ccc2c(c1)C(=O)Nc1ccccc1N2)c1ccccc1 [Example 8]
b. CC(=O)Nc1ccc2c(c1)C(=O)Nc1ccccc1N2 [Example 7]
Q. Please tell me which of the two, a or b , has the higher reported pIC50 value. Write down the label attached to your selection.
A. a
(a: 3.92, b: 3.40)
